Target: CB1 receptor (Rattus norvegicus, UniProt P20272)
Construct: displace [^3H]; from tissue; host or cells: rat cerebellum membranes
Sequence (P20272 whole entry): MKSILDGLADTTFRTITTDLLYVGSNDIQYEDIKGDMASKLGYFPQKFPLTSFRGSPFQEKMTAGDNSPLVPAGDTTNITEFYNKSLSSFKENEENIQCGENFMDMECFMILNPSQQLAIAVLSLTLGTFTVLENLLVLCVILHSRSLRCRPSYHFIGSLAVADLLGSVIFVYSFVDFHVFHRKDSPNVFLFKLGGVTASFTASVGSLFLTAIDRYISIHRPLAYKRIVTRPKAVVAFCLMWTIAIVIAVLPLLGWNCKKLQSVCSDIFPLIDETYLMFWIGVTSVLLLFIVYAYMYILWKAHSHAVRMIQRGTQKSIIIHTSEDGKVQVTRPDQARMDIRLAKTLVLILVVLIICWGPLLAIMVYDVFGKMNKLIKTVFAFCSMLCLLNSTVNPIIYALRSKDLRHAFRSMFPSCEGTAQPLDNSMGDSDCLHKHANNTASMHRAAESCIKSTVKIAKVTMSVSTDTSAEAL
Experiment: Ligand-receptor assay for the CB1 receptor, displacement of [3H] SR141716
Format: binding
Conditions: rat cerebellum membranes, read-out: CB1 Ki
readout-name: pKi
Units for pKi: none; it is -log10 of a concentration expressed in mol/L.

Per the reported CB1 receptor (Rattus norvegicus, UniProt P20272) data, CCCCC/C=C\C/C=C\CCCCCCCCOCCc1ccc(O)c(O)c1 has pKi of 5.13

Per the reported CB1 receptor (Rattus norvegicus, UniProt P20272) data, CCCCC/C=C\C/C=C\CCCCCCCCOCCc1ccc2c(c1)OCO2 has pKi of 4.65
